# Assayed target: Nucleic Acid
# Assay name: Binding affinity to single-strand oligonucleotide Pu39 assessed as formation of G-quadruplex complex after 3 mins by PCR stop assay
# Format: nucleic-acid assay
Assay readout: IC50 (µM)

[A] CN(C)CCCNc1c2ccccc2nc2c1[nH]c1ccc(F)cc12
[B] CN(C)CCCNc1c2ccccc2[n+](C)c2c1[nH]c1ccc(F)cc12.[I-]
Determine, for A and B , which has the greater value of IC50. Answer by stating the label of the chosen item.
A

###

# Assayed target: Nucleic Acid
# Assay name: Binding affinity to Bcl-2 promoter quadruplex DNA by surface plasmon resonance assay
# Type: nucleic-acid assay
Assay readout: Kd (nM)

[I] OCCNc1c2ccccc2nc2c1[nH]c1ccccc12
[II] CN(C)CCCNc1c2ccccc2nc2c1[nH]c1ccc(F)cc12
[III] CN(C)CCCNc1c2ccccc2[n+](C)c2c1[nH]c1ccc(F)cc12.[I-]
Provide the items ranked by increasing Kd. Reply format: the labels, ordered as requested.
III, II, I
(III: 31.8 nM, II: 167 nM, I: 1500 nM)

###

# Assayed target: Nucleic Acid
# Assay name: Binding affinity to Bcl-2 promoter duplex DNA by surface plasmon resonance assay
# Type: nucleic-acid assay
pKd: −log10 of the molar value.
Assay readout: pKd

[P] CN(C)CCCNc1c2ccccc2nc2c1[nH]c1ccc(F)cc12
[Q] OCCNc1c2ccccc2nc2c1[nH]c1ccccc12
[R] CN(C)CCCNc1c2ccccc2[n+](C)c2c1[nH]c1ccc(F)cc12.[I-]
List the 3 molecules shown above, ordered by increasing pKd. Answer by writing out the labels in the requested order.
Q, P, R
(Q: 5.47, P: 6.32, R: 6.57)

###

Measured pIC50 accompanies every entry in the list below.
# Assayed target: Nucleic Acid
# Assay name: Binding affinity to single-strand oligonucleotide MutPu39 assessed as formation of G-quadruplex complex after 3 mins by PCR stop assay
# Format: nucleic-acid assay
pIC50: −log10 of the molar value.

# example entries with known answers
OCCNc1c2ccccc2nc2c1[nH]c1ccccc12; < 4.00
CN(C)CCCNc1c2ccccc2[n+](C)c2c1[nH]c1ccc(F)cc12.[I-]; 4.71

For this compound ( CN(C)CCCNc1c2ccccc2nc2c1[nH]c1ccc(F)cc12 ), measured pIC50 is < 4.00
